Source: paper PMC4101887

Assay: Multiple-dose plasma pharmacokinetics of lonafarnib
Assay type: in vivo, human
Details: human, plasma, oral, Lonafarnib Tmax (median), lonafarnib 200 mg BID+gemcitabine 600 mg/m2; cycle 2 day 15; n=4
Attribute measured: Tmax (h)
Numbers only, in h.

Ask: Find the measured Tmax of "NC(=O)N1CCC(CC(=O)N2CCC([C@H]3c4ncc(Br)cc4CCc4cc(Cl)cc(Br)c43)CC2)CC1" and report it.
Reply: 5

====

Assay: Multiple-dose plasma pharmacokinetics of lonafarnib
Type: in vivo, human
Conditions: human, plasma, oral, Lonafarnib Cmax, lonafarnib 200 mg BID+gemcitabine 600 mg/m2; cycle 2 day 15; n=4
Attribute measured: Cmax
Form entry: enter the amount, then its unit.

Ask: Find the measured Cmax of "NC(=O)N1CCC(CC(=O)N2CCC([C@H]3c4ncc(Br)cc4CCc4cc(Cl)cc(Br)c43)CC2)CC1" and report it.
Reply: 1880 ng/mL

====

Experiment: Plasma pharmacokinetics of gemcitabine
Assay type: in vivo, human
Conditions: human, plasma, intravenous, Gemcitabine Cmax, lonafarnib 200 mg BID+gemcitabine 600 mg/m2; cycle 1 Day 15 (with lonafarnib); n=7
Attribute measured: Cmax (ng/mL)
Answers are plain numbers, in ng/mL.

Ask: Find the measured Cmax of "Nc1ccn([C@@H]2O[C@H](CO)[C@@H](O)C2(F)F)c(=O)n1" and report it.
Reply: 11200

====

Experiment: Plasma pharmacokinetics of gemcitabine
Type: in vivo, human
Conditions: human, plasma, intravenous, 600 mg/m2, Gemcitabine Tmax (median), lonafarnib 200 mg BID+gemcitabine 600 mg/m2; cycle 1 Day 1 (gemcitabine alone); n=6
Attribute measured: Tmax (min)
Numbers only, in min.

Ask: Find the measured Tmax of "Nc1ccn([C@@H]2O[C@H](CO)[C@@H](O)C2(F)F)c(=O)n1" and report it.
Reply: 22.8
